// reported MBEC for each item listed
Tested on: biofilm-producing Staphylococcus epidermidis strains
TEST_PROTOCOL: Biofilm eradication (MBEC Assay Kit)
Type: cell-based
RECORDED_CONDITIONS: clinical strain 75 (Table S4)

MOLECULE | TARGET_ENTITY | MBEC
CC(=O)NC[C@H]1CN(c2ccc(N3CCOCC3)c(F)c2)C(=O)O1 [linezolid, reference compound] | biofilm-producing Staphylococcus epidermidis strains | 50 µg/mL
O=S(=O)(NC1CCN(CCC(Oc2ccc(C(F)(F)F)cc2)c2ccccc2)CC1)c1cccc(Cl)c1 (stereo not shown) [Compound 12] | biofilm-producing Staphylococcus epidermidis strains | 31.25 µg/mL

Q) Recorded MBEC for O=C(Nc1cccc(Cl)c1)NC1CCN(CCC(Oc2ccc(C(F)(F)F)cc2)c2cccs2)CC1 (stereo not shown) [Compound 25] , please?
A) 31.25 µg/mL

Q) Recorded MBEC for O=S(=O)(NC1CCN(CCC(Oc2ccc(C(F)(F)F)cc2)c2cccs2)CC1)c1cccc(Cl)c1 (stereo not shown) [Compound 14] , please?
A) 31.25 µg/mL

---

Tested on: biofilm-producing Staphylococcus epidermidis strains
TEST_PROTOCOL: Biofilm eradication (MBEC Assay Kit)
Format: cell-based
RECORDED_CONDITIONS: clinical strain 22 (Table S4)
RECORDED_ENDPOINT: MBEC (µg/mL)
Report only the number, with the unit µg/mL understood.

Solved cases below.
COMPOUND | TARGET_ENTITY | MBEC [µg/mL]
O=S(=O)(NC1CCN(CCC(Oc2ccc(C(F)(F)F)cc2)c2cccs2)CC1)c1cccc(Cl)c1 (stereo not shown) | biofilm-producing Staphylococcus epidermidis strains | 125
CC(=O)NC[C@H]1CN(c2ccc(N3CCOCC3)c(F)c2)C(=O)O1 [linezolid, reference compound] | biofilm-producing Staphylococcus epidermidis strains | 50
O=S(=O)(NC1CCN(CCC(Oc2ccc(C(F)(F)F)cc2)c2ccccc2)CC1)c1cccc(Cl)c1 (stereo not shown) | biofilm-producing Staphylococcus epidermidis strains | 125

The record that follows has no MBEC shown yet.
Q) Recorded MBEC for O=C(Nc1cccc(Cl)c1)NC1CCN(CCC(Oc2ccc(C(F)(F)F)cc2)c2cccs2)CC1 (stereo not shown) , please?
A) 31.25

---

// reported MBEC for each item listed
Test system: biofilm-producing Staphylococcus epidermidis strains
TEST_PROTOCOL: Biofilm eradication (MBEC Assay Kit)
Assay type: cell-based
RECORDED_CONDITIONS: clinical strain 45 (Table S4)
Form entry: enter the amount, then its unit.

Solved cases below.
COMPOUND | TARGET_ENTITY | MBEC
O=C(Nc1cccc(Cl)c1)NC1CCN(CCC(Oc2ccc(C(F)(F)F)cc2)c2cccs2)CC1 (stereo not shown) [Compound 25] | biofilm-producing Staphylococcus epidermidis strains | 31.25 µg/mL
CC(=O)NC[C@H]1CN(c2ccc(N3CCOCC3)c(F)c2)C(=O)O1 [linezolid, reference compound] | biofilm-producing Staphylococcus epidermidis strains | 50 µg/mL
O=S(=O)(NC1CCN(CCC(Oc2ccc(C(F)(F)F)cc2)c2cccs2)CC1)c1cccc(Cl)c1 (stereo not shown) [Compound 14] | biofilm-producing Staphylococcus epidermidis strains | 125 µg/mL

The record that follows has no MBEC shown yet.
Q) Recorded MBEC for O=S(=O)(NC1CCN(CCC(Oc2ccc(C(F)(F)F)cc2)c2ccccc2)CC1)c1cccc(Cl)c1 (stereo not shown) [Compound 12] , please?
A) 125 µg/mL
